assayed-system: MGL (Rattus norvegicus, UniProt Q8R431)
Construct: one g rat brain was homogenized using a Polytron homogenizer; from tissue; host or cells: rat brain homogenate
Sequence (Q8R431 whole entry): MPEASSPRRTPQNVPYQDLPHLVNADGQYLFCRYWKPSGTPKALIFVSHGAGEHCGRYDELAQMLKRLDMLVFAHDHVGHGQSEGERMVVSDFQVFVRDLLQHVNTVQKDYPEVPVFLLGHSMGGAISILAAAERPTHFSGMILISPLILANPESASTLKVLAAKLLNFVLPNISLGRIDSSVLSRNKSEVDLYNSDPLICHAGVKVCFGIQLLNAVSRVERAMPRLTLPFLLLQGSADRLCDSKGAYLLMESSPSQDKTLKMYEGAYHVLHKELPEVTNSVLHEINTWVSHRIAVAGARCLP
test: 2-AG accumulation assay in rat brain homogenate
Assay type: biochemical
stated-conditions: rat brain homogenate; compound 0.1 μM; 2-AG accumulation as percent of vehicle; read-out: Rat Brain 2AG % VehCntrl (%) @ 0.1 μM
readout-name: 2-AG accumulation, % of vehicle control at 0.1 µM (%)

compound: Cc1nc(-c2cccc(Cl)c2)sc1C(=O)N1CC(N2CCN(C(=O)c3nccs3)CC2)C1 [Cpd 490]
measured-number: 343
--
compound: Cc1cc(-c2ccccc2)ccc1C(=O)N1CC(N2CCN(C(=O)c3cscn3)CC2)C1 [Cpd 488]
measured-number: 219
--
compound: O=C(c1cscn1)N1CCN(C2CN(C(=O)c3ccc(-c4cccc(C(F)(F)F)c4)cc3F)C2)CC1 [Cpd 245]
measured-number: 224

----------
assayed-system: mutant MGL (Homo sapiens, UniProt Q99685, L169S/L176S)
Sequence (Q99685 whole entry L169S/L176S): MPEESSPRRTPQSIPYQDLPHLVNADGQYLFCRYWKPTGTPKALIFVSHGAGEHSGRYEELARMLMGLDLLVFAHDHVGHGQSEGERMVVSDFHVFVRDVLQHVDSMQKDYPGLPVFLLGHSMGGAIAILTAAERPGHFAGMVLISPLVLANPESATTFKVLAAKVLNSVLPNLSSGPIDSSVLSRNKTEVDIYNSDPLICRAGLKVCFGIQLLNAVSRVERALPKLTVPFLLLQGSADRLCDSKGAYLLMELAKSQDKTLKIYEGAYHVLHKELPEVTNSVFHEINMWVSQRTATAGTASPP
test: MGL ThermoFluor assay - mutant
Assay type: binding
stated-conditions: compound concentration measured by qNMR, read-out: MGL mutant ThermoFluor qKd (using qNMR conc.)
pKd: −log10 of the molar value.
readout-name: pKd

compound: O=C(c1cc(F)c2c(ccn2-c2ccc(F)cc2)c1)N1CC(N2CCN(C(=O)c3nccs3)CC2)C1 [Cpd 1350]
measured-number: 9.00
--
compound: O=C(c1nn(-c2ccc(Cl)cc2Cl)c2c1CSC/C2=C\c1ccc(F)cc1)N1CC(N2CCN(C(=O)C(F)(F)F)CC2)C1 [Cpd 1022]
measured-number: 5.97
--
compound: CC(c1ccccc1)n1ncc2cc(C(=O)N3CC(N4CCN(C(=O)c5nccs5)CC4)C3)ccc21 (stereo not drawn) [Cpd 1411]
measured-number: 9.00

----------
assayed-system: mutant MGL (Homo sapiens, UniProt Q99685, L169S/L176S)
test: MGL ThermoFluor assay - mutant
Type: binding
stated-conditions: ThermoFluor concentration-response, read-out: MGL mutant ThermoFluor Kd
pKd: −log10 of the molar value.

molecule: O=C(c1cscn1)N1CCN(C2CN(C(=O)c3cc(Br)ccc3F)C2)CC1
assayed-system: mutant MGL (Homo sapiens, UniProt Q99685, L169S/L176S)
result-operator: <
pKd: 4.20

molecule: O=C(c1ccc2[nH]c(-c3ccccc3)nc2c1)N1CC(N2CCN(C(=O)c3cscn3)CC2)C1
assayed-system: mutant MGL (Homo sapiens, UniProt Q99685, L169S/L176S)
result-operator: =
pKd: 5.96

molecule: O=C(c1ccc(-c2ccc(C(F)(F)F)cc2)cc1)N1CC(N2CCN(C(=O)c3nccs3)CC2)C1
assayed-system: mutant MGL (Homo sapiens, UniProt Q99685, L169S/L176S)
result-operator: =
pKd: 8.48

molecule: O=C(c1ccccc1)N1CCN(C2CN(C(=O)c3ccc(SCc4ccc(Cl)c(Cl)c4)cc3)C2)CC1
assayed-system: mutant MGL (Homo sapiens, UniProt Q99685, L169S/L176S)
result-operator: =
pKd: 7.18

molecule: O=C(c1ccc(Oc2cc(C(F)(F)F)ccn2)cc1)N1CC(N2CCN(C(=O)c3cscn3)CC2)C1
assayed-system: mutant MGL (Homo sapiens, UniProt Q99685, L169S/L176S)
result-operator: =
pKd: 5.70

molecule: O=C(c1ccccc1)N1CCN(C2CN(C(=O)c3ccc(Cc4ccccc4)cc3)C2)C(CO)C1 (stereo not shown)
assayed-system: mutant MGL (Homo sapiens, UniProt Q99685, L169S/L176S)
result-operator: =
pKd: 5.32

molecule: O=C(c1ccc(Cc2ccccc2)cc1)N1CC(N2CCN(C(=O)c3ccccc3)C(CO)C2)C1 (stereo not shown)
assayed-system: mutant MGL (Homo sapiens, UniProt Q99685, L169S/L176S)
result-operator: =
pKd: 5.48

----------
assayed-system: MGL (Rattus norvegicus)
Construct: one g rat brain was homogenized using a Polytron homogenizer; from tissue; host or cells: rat brain homogenate
test: 2-AG accumulation assay in rat brain homogenate
Type: biochemical
stated-conditions: rat brain homogenate; compound 1 μM; 2-AG accumulation as percent of vehicle; read-out: Rat Brain 2AG % VehCntrl (%) @ 1 μM
Below, each entry is listed alongside its reported 2-AG accumulation, % of vehicle control at 1 µM.
readout-name: 2-AG accumulation, % of vehicle control at 1 µM (%)

line-notation: O=C(c1cccc(-c2cccc(C(F)(F)F)c2)c1)N1CC(N2CCN(C(=O)c3cscn3)CC2)C1
measured-number: 187
//
line-notation: Cc1c(C(=O)N2CC(N3CCN(C(=O)c4nccs4)CC3)C2)sc2ccc(-c3ccccc3)cc12
measured-number: 406
//
line-notation: O=C(c1ccc(-c2ccccc2)cc1)N1CCN(C2CN(C(=O)c3ccns3)C2)CC1
measured-number: 100
//
line-notation: O=C(c1ccc[nH]1)N1CCN(C2CN(C(=O)c3nn(-c4ccc(Cl)cc4Cl)c4c3CSC/C4=C\c3ccc(F)cc3)C2)CC1
measured-number: 281
//
line-notation: O=C(c1ccc(-c2ccccc2)s1)N1CC(N2CCN(C(=O)c3nccs3)CC2)C1
measured-number: 143
//
line-notation: O=C(c1ccc(-n2nc3c(c2-c2ccc(Cl)cc2)CCCC3)cc1)N1CC(N2CCN(C(=O)c3nccs3)CC2)C1
measured-number: 966
//
line-notation: O=C(c1ccc(OCc2cncc(Cl)c2)cc1)N1CC(N2CCN(C(=O)c3nccs3)CC2)C1
measured-number: 570
//
line-notation: O=C(c1ccccc1)N1CCc2cc(C(=O)N3CC(N4CCN(C(=O)c5nccs5)CC4)C3)ccc2C1
measured-number: 499
//
line-notation: O=C(c1ccc(OCc2cccc(Br)n2)cc1)N1CC(N2CCN(C(=O)c3nccs3)CC2)C1
measured-number: 194

----------
Tested on: CFA-induced paw radiant heat hypersensitivity
test: CFA-induced paw radiant heat hypersensitivity
Type: in vivo, rat
stated-conditions: Rattus norvegicus, po; 30 mg/kg p.o., HPβCD, group mean values, last time point 180 or 300 min; read-out: CFA thermal hypersensitivity Method 1: peak % reversal
Below, each entry is listed alongside its reported inhibition in vivo at 30 mg/kg.
readout-name: inhibition in vivo at 30 mg/kg (%)

line-notation: O=C(c1ccc(-c2ccccc2)cc1)N1CC(N2CCN(C(=O)c3cscn3)CC2)C1
measured-number: 77.8

line-notation: O=C(c1ccc2c(ccn2-c2ccc(F)cc2)c1)N1CC(N2CCN(C(=O)c3cscn3)CC2)C1
measured-number: 25.4

line-notation: Cc1c(C(=O)N2CC(N3CCN(C(=O)c4cscn4)CC3)C2)sc2cc(C(F)(F)F)ccc12
measured-number: 57.7

line-notation: O=C(c1nccs1)N1CCN(C2CN(C(=O)c3ccc(-c4cccc(C(F)(F)F)c4)cc3Cl)C2)CC1
measured-number: 41.7

line-notation: O=C(c1cscn1)N1CCN(C2CN(C(=O)c3sc4cc(C(F)(F)F)ccc4c3F)C2)CC1
measured-number: -10.7

line-notation: O=C(c1cscn1)N1CCN(C2CN(C(=O)c3sc4cc(C(F)(F)F)c(F)cc4c3Cl)C2)CC1
measured-number: -3.1

line-notation: O=C(c1cscn1)N1CCN(C2CN(C(=O)c3ccc(-c4cccc(C(F)(F)F)c4)cc3Cl)C2)CC1
measured-number: 35.1

line-notation: O=C(c1ccc2c(ccn2-c2ccc(F)c(F)c2)c1)N1CC(N2CCN(C(=O)c3cscn3)CC2)C1
measured-number: 69.7

line-notation: O=C(c1ccc(-c2cccc(C(F)(F)F)c2)cc1)N1CC(N2CCN(C(=O)c3cscn3)CC2)C1
measured-number: 55.8

line-notation: O=C(c1ccccc1)N1CCN(C2CN(C(=O)c3ccc(-c4ccccc4)cc3)C2)CC1
measured-number: 96.6

line-notation: Cc1cn(-c2ccc(F)cc2)c2ccc(C(=O)N3CC(N4CCN(C(=O)c5nccs5)CC4)C3)cc12
measured-number: 35.3

line-notation: Cc1cc(-c2cccc(C(F)(F)F)c2)ccc1C(=O)N1CC(N2CCN(C(=O)c3cscn3)CC2)C1
measured-number: 43

line-notation: O=C(c1ccc2c(ccn2-c2ccc(C(F)(F)F)cc2)c1)N1CCN(C2CN(C(=O)c3nccs3)C2)CC1
measured-number: 86.3

----------
Here's a batch of compounds along with measured IC50 for purified wild type MGL (wt-MGLL 6H-11-313) (Homo sapiens, UniProt Q99685).
readout-name: IC50 (µM)

compound: Cc1c(-c2ccccc2)oc2c(C(=O)N3CCN(C4CN(C(=O)c5nccs5)C4)CC3c3ccccc3)cccc2c1=O (stereo not drawn)
assayed-system: purified wild type MGL (wt-MGLL 6H-11-313) (Homo sapiens, UniProt Q99685)
Sequence (Q99685 whole entry): as the sequence (Q99685 whole entry L169S/L176S) above, with S169L, S176L counted along it
result-operator: =
measured-number: 8.41
//
compound: O=C(c1ccc(SCc2cccc(C(F)(F)F)c2)cc1)N1CC(N2CCN(C(=O)C(F)(F)F)CC2)C1
assayed-system: purified wild type MGL (wt-MGLL 6H-11-313) (Homo sapiens, UniProt Q99685)
result-operator: =
measured-number: 0.177
//
compound: O=C(c1cccc(-c2ccc(F)cc2F)c1)N1CC(N2CCN(C(=O)c3nccs3)CC2)C1
assayed-system: purified wild type MGL (wt-MGLL 6H-11-313) (Homo sapiens, UniProt Q99685)
result-operator: =
measured-number: 0.016
//
compound: Cc1nc2cc(C(=O)N3CC(N4CCN(C(=O)c5cscn5)CC4)C3)ccc2n1-c1ccc(F)c(F)c1
assayed-system: purified wild type MGL (wt-MGLL 6H-11-313) (Homo sapiens, UniProt Q99685)
result-operator: =
measured-number: 0.986
//
compound: O=C(c1ccccc1)N1CCN(C2CN(C(=O)c3ccc4c(-c5ccc(C(F)(F)F)cc5)c[nH]c4c3)C2)CC1
assayed-system: purified wild type MGL (wt-MGLL 6H-11-313) (Homo sapiens, UniProt Q99685)
result-operator: =
measured-number: 0.057
//
compound: O=C(c1nccs1)N1CCN(C2CN(C(=O)c3sc4cc(Br)ccc4c3Cl)C2)CC1
assayed-system: purified wild type MGL (wt-MGLL 6H-11-313) (Homo sapiens, UniProt Q99685)
result-operator: <
measured-number: 0.005
//
compound: Cc1c(Cc2ccc(C(F)(F)F)cc2)cccc1C(=O)N1CC(N2CCN(C(=O)c3cncs3)CC2)C1
assayed-system: purified wild type MGL (wt-MGLL 6H-11-313) (Homo sapiens, UniProt Q99685)
result-operator: =
measured-number: 0.777
//
compound: Cc1c(C(=O)N2CC(N3CCN(C(=O)c4cscn4)CC3)C2)[nH]c2ccc(Cl)cc12
assayed-system: purified wild type MGL (wt-MGLL 6H-11-313) (Homo sapiens, UniProt Q99685)
result-operator: =
measured-number: 0.468
//
compound: O=C(c1cc(F)cc(-c2ccccc2)c1)N1CC(N2CCN(C(=O)c3cscn3)CC2)C1
assayed-system: purified wild type MGL (wt-MGLL 6H-11-313) (Homo sapiens, UniProt Q99685)
result-operator: =
measured-number: 1.61
//
compound: Cc1cc(-c2cccc(C(F)(F)F)c2)ccc1C(=O)N1CCN(C2CN(C(=O)c3cscn3)C2)CC1
assayed-system: purified wild type MGL (wt-MGLL 6H-11-313) (Homo sapiens, UniProt Q99685)
result-operator: =
measured-number: 0.204
//
compound: Cc1c(C(=O)N2CC(N3CCN(C(=O)c4ccccc4)CC3)C2)sc2cc(F)ccc12
assayed-system: purified wild type MGL (wt-MGLL 6H-11-313) (Homo sapiens, UniProt Q99685)
result-operator: =
measured-number: 0.465
//
compound: O=C(c1ccc2nc(-c3nccs3)sc2c1)N1CC(N2CCN(C(=O)c3nccs3)CC2)C1
assayed-system: purified wild type MGL (wt-MGLL 6H-11-313) (Homo sapiens, UniProt Q99685)
result-operator: =
measured-number: 0.195
//
compound: O=C(c1ccccc1)N1CCN(C2CN(C(=O)c3cccc4[nH]c(-c5ccc(Cl)cc5)nc34)C2)CC1
assayed-system: purified wild type MGL (wt-MGLL 6H-11-313) (Homo sapiens, UniProt Q99685)
result-operator: =
measured-number: 2.9
//
compound: O=C(c1ccc2c(c1)ncn2CCC(F)(F)F)N1CC(N2CCN(C(=O)c3nccs3)CC2)C1
assayed-system: purified wild type MGL (wt-MGLL 6H-11-313) (Homo sapiens, UniProt Q99685)
result-operator: =
measured-number: 0.978
//
compound: O=C(c1ccc2c(cnn2Cc2cccc(C(F)(F)F)c2)c1)N1CC(N2CCN(C(=O)c3nccs3)CC2)C1
assayed-system: purified wild type MGL (wt-MGLL 6H-11-313) (Homo sapiens, UniProt Q99685)
result-operator: <
measured-number: 0.005
//
compound: O=C(c1ccc2c(cnn2Cc2ccc(F)cc2)c1)N1CC(N2CCN(C(=O)c3nccs3)CC2)C1
assayed-system: purified wild type MGL (wt-MGLL 6H-11-313) (Homo sapiens, UniProt Q99685)
result-operator: <
measured-number: 0.005
//
compound: O=C(c1ccc(-c2ccccc2)cc1)N1CC(N2CCN(C(=O)C3CCC3)CC2)C1
assayed-system: purified wild type MGL (wt-MGLL 6H-11-313) (Homo sapiens, UniProt Q99685)
result-operator: =
measured-number: 0.326
//
compound: O=C(c1ccc2c(c1)CCN(c1ccccc1)C2)N1CC(N2CCN(C(=O)c3nccs3)CC2)C1
assayed-system: purified wild type MGL (wt-MGLL 6H-11-313) (Homo sapiens, UniProt Q99685)
result-operator: <
measured-number: 0.005
//
compound: O=C(c1ccc(Oc2cccc(C(F)(F)F)c2)cc1)N1CC(N2CCN(C(=O)c3nccs3)CC2)C1
assayed-system: purified wild type MGL (wt-MGLL 6H-11-313) (Homo sapiens, UniProt Q99685)
result-operator: <
measured-number: 0.005
//
compound: O=C(c1ccc(-c2ccc(Cl)c(Cl)c2)cc1)N1CC(N2CCN(C(=O)c3nccs3)CC2)C1
assayed-system: purified wild type MGL (wt-MGLL 6H-11-313) (Homo sapiens, UniProt Q99685)
result-operator: <
measured-number: 0.005
//
compound: Cc1cc(-c2ccc(F)c(Cl)c2)ccc1C(=O)N1CC(N2CCN(C(=O)c3cscn3)CC2)C1
assayed-system: purified wild type MGL (wt-MGLL 6H-11-313) (Homo sapiens, UniProt Q99685)
result-operator: =
measured-number: 0.0494
//
compound: Cc1c(C(=O)N2CC(N3CCN(C(=O)c4nccs4)CC3)C2)oc2ccc(F)cc12
assayed-system: purified wild type MGL (wt-MGLL 6H-11-313) (Homo sapiens, UniProt Q99685)
result-operator: =
measured-number: 0.402
//
compound: Cc1c(C(=O)N2CC(N3CCN(C(=O)c4nccs4)CC3)C2)[nH]c2ccc(Cl)cc12
assayed-system: purified wild type MGL (wt-MGLL 6H-11-313) (Homo sapiens, UniProt Q99685)
result-operator: =
measured-number: 0.044
//
compound: O=C(c1ccc2c(-c3ccc(C(F)(F)F)cc3)c[nH]c2c1)N1CC(N2CCN(C(=O)c3nccs3)CC2)C1
assayed-system: purified wild type MGL (wt-MGLL 6H-11-313) (Homo sapiens, UniProt Q99685)
result-operator: <
measured-number: 0.005

All figures here come from patent US8362000B2.
